Recorded values, source patent US20180273538A1.

# systemUnderTest: CLK1 (Homo sapiens, UniProt P49759)
# Construct: full-length human kinases from Carna Biosciences; purchased Carna Biosciences 04-126
# Sequence (P49759 1-526 isoform P49759-3): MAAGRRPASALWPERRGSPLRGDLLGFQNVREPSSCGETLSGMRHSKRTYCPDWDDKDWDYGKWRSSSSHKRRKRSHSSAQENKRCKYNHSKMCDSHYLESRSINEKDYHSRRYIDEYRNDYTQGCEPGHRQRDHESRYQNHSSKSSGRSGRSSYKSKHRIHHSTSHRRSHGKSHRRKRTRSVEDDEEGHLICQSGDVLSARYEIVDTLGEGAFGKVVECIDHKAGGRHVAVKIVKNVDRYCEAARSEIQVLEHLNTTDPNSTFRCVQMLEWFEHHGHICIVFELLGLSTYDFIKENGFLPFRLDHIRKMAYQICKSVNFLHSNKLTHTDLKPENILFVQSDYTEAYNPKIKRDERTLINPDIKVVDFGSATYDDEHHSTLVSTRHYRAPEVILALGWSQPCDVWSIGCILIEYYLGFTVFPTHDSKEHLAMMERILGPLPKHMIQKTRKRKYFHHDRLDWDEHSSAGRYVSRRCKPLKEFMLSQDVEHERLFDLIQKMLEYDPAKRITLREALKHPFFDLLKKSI
# assayComment: Kinase TR-FRET assay, CLK1
# Assay type: biochemical
Here, each record is paired with measured IC50 data.
Please reply with the bare figure in µM and do not write the unit itself.

Exam item: Record "COc1ccccc1CNc1nc(C)nc2[nH]cc(-c3ccnc(N)c3)c12" : what is its IC50 with CLK1 (Homo sapiens, UniProt P49759)?
Marked response: 0.0157

Exam item: Record "Cc1nc(NCc2c(C)cccc2F)c2c(-c3ccnc(N)c3)c[nH]c2n1" : what is its IC50 with CLK1 (Homo sapiens, UniProt P49759)?
Marked response: 0.0152

Exam item: Record "Cc1nc(NCc2cccc(Cl)c2C)c2c(-c3ccnc(N)c3)c[nH]c2n1" : what is its IC50 with CLK1 (Homo sapiens, UniProt P49759)?
Marked response: 0.0378

Exam item: Record "Cc1cc(-c2ccc3c(c2)OCCO3)c2c(-c3ccnc(N)c3)c[nH]c2n1" : what is its IC50 with CLK1 (Homo sapiens, UniProt P49759)?
Marked response: 0.0261

Exam item: Record "Cc1nc(-c2ccc3c(c2)OCCO3)c2c(-c3ccnc(N)c3)c[nH]c2n1" : what is its IC50 with CLK1 (Homo sapiens, UniProt P49759)?
Marked response: 0.0334
